Test system: Rattus norvegicus
ASSAY_DETAILS: Triglyceride level in Wistar male rats administered at a dose of 80 mg/kg
Assay type: functional
This section presents compounds with their documented Triglyceride level values.
Your answer should be a plain number; it is taken to be in mg/dL.

// below: answered compounds
C/C=C/c1ccc(OC)c(OC)c1OC.CC(C)CCC[C@@H](C)[C@H]1CC[C@H]2[C@@H]3CC=C4C[C@@H](O)CC[C@]4(C)[C@H]3CC[C@]12C: 125
C/C=C/c1cc(OC)cc(OC)c1OC.CC(C)CCC[C@@H](C)[C@H]1CC[C@H]2[C@@H]3CC=C4C[C@@H](O)CC[C@]4(C)[C@H]3CC[C@]12C: 140
C/C=C/c1c(OC)cc(OC)cc1OC.CC(C)CCC[C@@H](C)[C@H]1CC[C@H]2[C@@H]3CC=C4C[C@@H](O)CC[C@]4(C)[C@H]3CC[C@]12C: 116
C/C=C/c1cc(OC)c(OC)c(OC)c1.CC(C)CCC[C@@H](C)[C@H]1CC[C@H]2[C@@H]3CC=C4C[C@@H](O)CC[C@]4(C)[C@H]3CC[C@]12C: 136

// next entry
QUERY: Entry `C/C=C/c1c(OC)ccc(OC)c1OC.CC(C)CCC[C@@H](C)[C@H]1CC[C@H]2[C@@H]3CC=C4C[C@@H](O)CC[C@]4(C)[C@H]3CC[C@]12C` : reported Triglyceride level = ?
RESULT: 162

###

Test system: Rattus norvegicus
ASSAY_DETAILS: Total cholesterol level in Wistar male rats administered at a dose of 80 mg/kg
Type: functional
VALUE_KIND: Total cholesterol (mg/dL)
Your answer should be a plain number; it is taken to be in mg/dL.

// below: answered compounds
C/C=C/c1c(OC)cc(OC)cc1OC.CC(C)CCC[C@@H](C)[C@H]1CC[C@H]2[C@@H]3CC=C4C[C@@H](O)CC[C@]4(C)[C@H]3CC[C@]12C: 98.1
C/C=C/c1cc(OC)cc(OC)c1OC.CC(C)CCC[C@@H](C)[C@H]1CC[C@H]2[C@@H]3CC=C4C[C@@H](O)CC[C@]4(C)[C@H]3CC[C@]12C: 97.9
C/C=C/c1c(OC)ccc(OC)c1OC.CC(C)CCC[C@@H](C)[C@H]1CC[C@H]2[C@@H]3CC=C4C[C@@H](O)CC[C@]4(C)[C@H]3CC[C@]12C: 115
C/C=C/c1ccc(OC)c(OC)c1OC.CC(C)CCC[C@@H](C)[C@H]1CC[C@H]2[C@@H]3CC=C4C[C@@H](O)CC[C@]4(C)[C@H]3CC[C@]12C: 96.6

// next entry
QUERY: Identify the measured Total cholesterol of `C/C=C/c1cc(OC)c(OC)c(OC)c1.CC(C)CCC[C@@H](C)[C@H]1CC[C@H]2[C@@H]3CC=C4C[C@@H](O)CC[C@]4(C)[C@H]3CC[C@]12C` for Rattus norvegicus.
RESULT: 93.4

###

This section presents compounds with their documented Inhibition values.
Species on record: Homo sapiens
ASSAY_DETAILS: In vitro inhibition of human platelet aggregation induced by 10 uM ADP after incubation at 150 uM
Type: functional
Your answer should be a plain number; it is taken to be in %.

C/C=C/c1c(OC)cc(OC)cc1OC: 19
CC(=O)Oc1ccccc1C(=O)O [ASPIRIN]: 37.1
C/C=C/c1cc(OC)cc(OC)c1OC: 25.4

// next entry
QUERY: Entry C/C=C/c1cc(OC)c(OC)cc1OC [TRANS-ASARONE] : reported Inhibition = ?
RESULT: 14.7
